# ASSAY SYSTEM: native sulfated human cationic trypsin purified from pancreatic juice (human)
# ASSAY TEXT: KD calculated from the rate constants (association and dissociation rate assays); KD(calc): equilibrium dissociation constant calculated from kon and koff of the activity-based rate assays
PROPERTY LABEL: pKd
// pKd is dimensionless: -log10 of concentration (M)

BINDER: serine protease inhibitor Kazal type 1 (SPINK1), wildtype, C-terminal 10His tag (natural protein) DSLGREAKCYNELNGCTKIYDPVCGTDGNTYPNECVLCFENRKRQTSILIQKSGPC
pKd: 10.80

stdin: Record request: pKd value, item SPINK1 variant N34S, C-terminal 10His tag (natural protein) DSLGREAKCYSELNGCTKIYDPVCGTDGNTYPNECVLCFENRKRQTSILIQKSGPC
stdout: 10.79
